test system: anti-desmoglein-3 scFv antibody binding to human DSG3; assay: blockers of pathogenic pemphigus antibody–desmoglein-3 binding – biochemical, validation compound set, bead-based, flow cytometry, pilot screen (AID 588368); settings: Protein G beads, DSG3-Fc, scFv-GFP binding, at 10 µM, hits give low values;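 note: signal is the median channel fluorescence of bead-bound GFP antibody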
measured-parameter: binding (% of control) (%)
Write the answer as a number in %, unit excluded.

Worked examples, 8 compounds total:
| compound | binding (% of control) (%) |
| --- | --- |
| CCc1oc2ccccc2c1C(=O)c1cc(Br)c(O)c(Br)c1 | 102 |
| CC(C)(C)OC(=O)COc1cc(OCC(=O)OC(C)(C)C)c2c(=O)cc(-c3ccccc3)oc2c1 | 105 |
| O=C(Cc1ccccc1)NNC(=O)Cc1ccccc1 | 91.9 |
| O=C(O)c1ccccc1Nc1cccc(C(F)(F)F)c1 | 98.2 |
| O=C(NCc1ccco1)/C(=C\C=C\c1ccccc1)NC(=O)c1ccccc1Br | 104 |
| O=C(Nc1cccc(Oc2c(F)c(F)c(F)c(F)c2F)c1)N1C[C@@H]2C[C@@H](C1)c1cccc(=O)n1C2 | 88 |
| CCOc1ccc(C(=O)C(C)=O)c(OCC)c1 | 97 |
| CCC(=O)c1ccc(OCc2ccc(C(=O)OC)cc2)cc1 | 96.4 |

# input for lookup
Query :: Would you mind telling me what binding (% of control) value was observed for CC(=O)OC(C)C[N+](C)(C)C (stereo not drawn) ?
Result :: 107
